Target: Cdk9/cyclinT1 (Homo sapiens)
Assay: Cdk9/cyclinT1 IMAP Protocol (fluorescence polarization kinase assay)
Details: Cdk9_cyclinT1_IC50, Table V; generated using one of the two Cdk9/cyclinT1 assays (IMAP or Alpha Screen), not stated which; ATP 6 uM
MEASURE_NAME: IC50 (nM)
Response body: numeric value in nM, unit text excluded.

The following molecules have reported results that may help.
molecule="COC1(CNc2nc(-c3cc(NC(=O)C4CCC(C)NC4)ncc3Cl)ccc2F)CCOCC1 (stereo not drawn) [Example 261]" observed_measurement=1
molecule="CC1(C)CCC(C(=O)Nc2cc(-c3ccc(F)c(NCC4CCOCC4)n3)c(Cl)cn2)CN1 (stereo not drawn) [Example 210]" observed_measurement=1
molecule="C[C@H](Nc1cccc(-c2cc(NC(=O)[C@@H]3CCCNC3)ncc2Cl)n1)C1CCOCC1 [Example 136]" observed_measurement=13
molecule="CO[C@H]1CNC[C@@H]1C(=O)Nc1cc(-c2ccc(F)c(NCC3CCOCC3)n2)c(Cl)cn1 [Example 144]" observed_measurement=1
molecule="CC1(CNc2nc(-c3cc(NC(=O)[C@@H]4CCCNC4)ncc3Cl)ccc2F)CCOCC1 [Example 208]" observed_measurement=1

Q: Provide value of IC50 for this record tested with Cdk9/cyclinT1 (Homo sapiens): O=C(Nc1cc(-c2cccc(NCC3CCOCC3)n2)c(Cl)cn1)[C@@H]1CCCNC1 [Example 3]
Result: 1

Q: API: value(readout=IC50, system=Cdk9/cyclinT1 (Homo sapiens)) for record CC[C@H]1CC[C@@H](C(=O)Nc2cc(-c3cccc(NCC4CCOCC4)n3)c(Cl)cn2)CN1 [Example 247]
Result: 7

Q: Identify the measured IC50 of CN1CC(C(=O)Nc2cc(-c3cccc(NCC4CCOCC4)n3)c(Cl)cn2)CC1=O (stereo not drawn) [Example 60] for Cdk9/cyclinT1 (Homo sapiens).
Result: 9

Q: Recorded IC50 for C[C@@H]1CC(CNc2cccc(-c3cc(NC(=O)[C@@H]4CCNC4)ncc3Cl)n2)C[C@H](C)O1 (stereo partly drawn) [Example 170] with Cdk9/cyclinT1 (Homo sapiens), please?
Result: 1

Q: What reported IC50 corresponds to CC1(C)COC(CNc2nc(-c3cc(NC(=O)[C@@H]4CCCNC4)ncc3Cl)ccc2F)CO1 (stereo partly drawn) [Example 255] on Cdk9/cyclinT1 (Homo sapiens)?
Result: 1

Q: Recorded IC50 for CC(C)CNc1cccc(-c2cc(NC(=O)[C@@H]3CCCNC3)ncc2Cl)n1 [Example 22] with Cdk9/cyclinT1 (Homo sapiens), please?
Result: 33

Q: Request: IC50, test system Cdk9/cyclinT1 (Homo sapiens), entry C[C@@H]1CC[C@@H](C(=O)Nc2cc(-c3cccc(NCC4CCOCC4)n3)ccn2)CN1 (racemic) [Example 224]
Result: 2

Q: Could you share what IC50 was measured for O=C(Nc1cc(-c2cccc(NCC3CCOCC3)n2)c(Cl)cn1)[C@@H]1CNC[C@H](F)C1 [Example 176] , tested on Cdk9/cyclinT1 (Homo sapiens)?
Result: 23

Q: Hello, I am looking for reported IC50 with Cdk9/cyclinT1 (Homo sapiens) for O=C(Nc1cc(-c2cccc(NCC3CCOCC3)n2)c(Cl)cn1)C1CCNCC1 [Example 7] . Could you help?
Result: 14

Q: Query the reported IC50 for Cdk9/cyclinT1 (Homo sapiens); item: O=C(Nc1cc(-c2cccc(NCC3CCOCC3)n2)c(Cl)cn1)[C@H]1CCCO1 [Example 68]
Result: 11

Q: # get_value(readout= IC50, system= Cdk9/cyclinT1 (Homo sapiens)) for COC(=O)N1CCC[C@@H](C(=O)Nc2cc(-c3cccc(NCC4CCOCC4)n3)c(Cl)cn2)C1 [Example 84]
Result: 419

Q: Form field: IC50 recorded for O=C(Nc1cc(-c2cccc(NCC3CCOCC3)n2)c(Cl)cn1)[C@@H]1CNC[C@H](C(F)(F)F)C1 (single isomer, unassigned) [Example 183] with Cdk9/cyclinT1 (Homo sapiens) (enter value)
Result: 55

---

Target: Cdk9/cyclinT1 (Homo sapiens)
Assay: Cdk9/cyclinT1 IMAP Protocol (fluorescence polarization kinase assay)
Settings: Cdk9_cyclinT1_IC50, Table V; generated using one of the two Cdk9/cyclinT1 assays (IMAP or Alpha Screen), not stated which; ATP 6 uM
MEASURE_NAME: pIC50
The quantity pIC50 is defined as the negative base-10 logarithm of the molar concentration.

Q: I'd like to know its pIC50. The compound in question is C[C@@H]1CC[C@@H](C(=O)Nc2cc(-c3cccc(NC[C@H]4CCOC(C)(C)C4)n3)c(Cl)cn2)CN1 (single isomer, unassigned) [Example 244]
Result: 9.00

Q: Query: pIC50; subject: CC1(C)COCC(CNc2nc(-c3cc(NC(=O)[C@@H]4CCCNC4)ncc3Cl)ccc2F)O1 (stereo partly shown) [Example 254]
Result: 9.00

Q: Data request, read-out pIC50, for CC1(C)COC[C@H](CNc2cccc(-c3cc(NC(=O)[C@@H]4CCCNC4)ncc3Cl)n2)O1 (single isomer, unassigned) [Example 234]
Result: 8.52

Q: Need pIC50 of O=C(Nc1cc(-c2cccc(NCC3CCOCC3)n2)c(Cl)cn1)C1(F)CCCNC1 (single isomer, unassigned) [Example 118] , thanks.
Result: 6.67

Q: So what's the measured pIC50 for this one? O=C(Nc1cc(-c2cccc(N3CCCC3)n2)c(Cl)cn1)[C@@H]1CCCNC1 [Example 44]
Result: 6.74

Q: Please report the recorded pIC50 for C[C@@H]1CC[C@H](C(=O)Nc2cc(-c3cccc(NCC4CCOCC4)n3)c(Cl)cn2)CN1 (single isomer, unassigned) [Example 142] .
Result: 6.82

Q: Which pIC50 is listed for O=C(COc1ccc(Cl)cn1)Nc1cc(-c2cccc(NCC3CCOCC3)n2)c(Cl)cn1 [Example 103] ?
Result: 7.57

---

Target: Cdk9/cyclinT1 (Homo sapiens, UniProt P50750)
Sequence (P50750 whole entry): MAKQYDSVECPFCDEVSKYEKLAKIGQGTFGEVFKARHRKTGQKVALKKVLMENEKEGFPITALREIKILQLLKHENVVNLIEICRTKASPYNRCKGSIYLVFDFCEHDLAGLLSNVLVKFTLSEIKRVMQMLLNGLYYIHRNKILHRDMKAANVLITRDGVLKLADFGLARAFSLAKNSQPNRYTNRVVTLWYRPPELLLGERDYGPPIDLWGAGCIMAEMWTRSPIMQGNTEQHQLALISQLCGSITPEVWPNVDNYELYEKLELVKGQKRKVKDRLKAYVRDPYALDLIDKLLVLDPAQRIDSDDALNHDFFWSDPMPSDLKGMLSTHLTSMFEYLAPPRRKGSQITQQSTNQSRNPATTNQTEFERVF
Sequence (O60563 whole entry partner): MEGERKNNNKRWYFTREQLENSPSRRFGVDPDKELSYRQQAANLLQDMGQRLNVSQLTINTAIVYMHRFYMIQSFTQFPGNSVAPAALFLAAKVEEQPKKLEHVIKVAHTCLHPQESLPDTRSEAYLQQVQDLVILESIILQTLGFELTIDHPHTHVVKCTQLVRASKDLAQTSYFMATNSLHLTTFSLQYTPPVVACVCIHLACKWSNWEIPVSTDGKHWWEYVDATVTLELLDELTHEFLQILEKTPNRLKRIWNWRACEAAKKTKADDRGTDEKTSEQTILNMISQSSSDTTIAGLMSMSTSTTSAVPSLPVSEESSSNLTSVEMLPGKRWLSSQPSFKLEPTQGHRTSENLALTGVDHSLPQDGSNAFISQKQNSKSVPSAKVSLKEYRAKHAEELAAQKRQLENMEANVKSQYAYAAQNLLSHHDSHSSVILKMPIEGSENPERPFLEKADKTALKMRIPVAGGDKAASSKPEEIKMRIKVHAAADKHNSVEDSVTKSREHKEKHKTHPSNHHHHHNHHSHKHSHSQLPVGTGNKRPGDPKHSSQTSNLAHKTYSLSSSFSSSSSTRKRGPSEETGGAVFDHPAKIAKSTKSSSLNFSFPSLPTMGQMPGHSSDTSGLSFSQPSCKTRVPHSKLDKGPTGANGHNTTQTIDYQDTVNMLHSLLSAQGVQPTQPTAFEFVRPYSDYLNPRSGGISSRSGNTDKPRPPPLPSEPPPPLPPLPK
Experiment: Cdk9/cyclinT1 IMAP Protocol (fluorescence polarization kinase assay)
Conditions: Cdk9_cyclinT1_IC50, Table V; generated using one of the two Cdk9/cyclinT1 assays (IMAP or Alpha Screen), not stated which; ATP 6 uM
MEASURE_NAME: pIC50
// scale note: pIC50 = -log10(conc_M); give the bare number

compound="C[C@@H]1CC(CNc2cccc(-c3cc(NC(=O)[C@H]4CNCCO4)ncc3Cl)n2)C[C@H](C)O1 (some centres unmarked)" tested_target="Cdk9/cyclinT1 (Homo sapiens, UniProt P50750)" measure_name=pIC50 observed_measurement=7.80

Q: Record lookup: for Cdk9/cyclinT1 (Homo sapiens, UniProt P50750), what pIC50 belongs to `O=C(Nc1cc(-c2cccc(NCC3CCOCC3)n2)c(Cl)cn1)[C@H]1CNC[C@H]1F` ?
Result: 7.80

Q: What reported pIC50 corresponds to `O=C(Nc1cc(-c2cccc(NCc3cccc(F)c3)n2)c(Cl)cn1)[C@H]1CCCNC1` on Cdk9/cyclinT1 (Homo sapiens, UniProt P50750)?
Result: 7.77

Q: Please state recorded pIC50 (tested on Cdk9/cyclinT1 (Homo sapiens, UniProt P50750)) of O=C(Nc1cc(-c2cccc(NCC3CCOCC3)n2)c(Cl)cn1)C1CNCCO1 (centres unmarked)
Result: 7.80

Q: Lab note: need pIC50 with Cdk9/cyclinT1 (Homo sapiens, UniProt P50750) for entry `O=C(Nc1cc(-c2cccc(NCC3CCOCC3)n2)c(Cl)cn1)[C@H]1CN[C@@H](CF)C1` , please look it up.
Result: 8.15

---

Target: Cdk9/cyclinT1 (Homo sapiens, UniProt P50750)
Test: Cdk9/cyclinT1 IMAP Protocol (fluorescence polarization kinase assay)
Conditions: Cdk9_cyclinT1_IC50, Table V; generated using one of the two Cdk9/cyclinT1 assays (IMAP or Alpha Screen), not stated which; ATP 6 uM
MEASURE_NAME: pIC50
# reply with the number alone; pIC50 is -log10 of concentration in mol/L

Worked cases, pIC50 given:
compound=CC1(C)C[C@@H](CNc2cccc(-c3cc(NC(=O)[C@@H]4CCNC4)ncc3Cl)n2)CCO1 tested_target="Cdk9/cyclinT1 (Homo sapiens, UniProt P50750)" observed_measurement=9.00
compound="CC1(C)CC(CNc2cccc(-c3cc(NC(=O)[C@@H]4CCNC4)ncc3Cl)n2)CCO1 (some centres unmarked)" tested_target="Cdk9/cyclinT1 (Homo sapiens, UniProt P50750)" observed_measurement=9.00
compound="O=C(Nc1cc(-c2nc(NCC3CCOCC3)ccc2Cl)c(Cl)cn1)C1CNCCOC1 (single isomer, unassigned) [Example 214]" tested_target="Cdk9/cyclinT1 (Homo sapiens, UniProt P50750)" observed_measurement=9.00
compound="C[C@H]1CNC[C@@H](C(=O)Nc2cc(-c3cccc(NCC4CCOCC4)n3)c(Cl)cn2)C1 (single isomer, unassigned)" tested_target="Cdk9/cyclinT1 (Homo sapiens, UniProt P50750)" observed_measurement=7.89
compound=COC1(CNc2nc(-c3cc(NC(=O)[C@@H]4CCCNC4)ncc3Cl)ccc2F)CCOCC1 tested_target="Cdk9/cyclinT1 (Homo sapiens, UniProt P50750)" observed_measurement=8.52

Could you now consider this next compound?
Q: # get_value(readout= pIC50, system= Cdk9/cyclinT1 (Homo sapiens, UniProt P50750)) for `O=C(Nc1cc(-c2cccc(NCc3ccccc3F)n2)c(Cl)cn1)[C@@H]1CCCNC1`
Result: 8.00
